target: human RORγ (Homo sapiens); construct: human, NM_005060.3 and from Ser253 to Lys518; expressed in transfected cells; host or cells: CHO cells (transient co-transfection with pG5-Luc reporter); assay: Luciferase reporter gene assay of inhibitory effect against RORγ transcriptional activity (GAL4-hRORγ plasmid in CHO cells); type: cell-based; conditions: read-out: LUC EC50 hRORg
Sequence (P51449 253-518): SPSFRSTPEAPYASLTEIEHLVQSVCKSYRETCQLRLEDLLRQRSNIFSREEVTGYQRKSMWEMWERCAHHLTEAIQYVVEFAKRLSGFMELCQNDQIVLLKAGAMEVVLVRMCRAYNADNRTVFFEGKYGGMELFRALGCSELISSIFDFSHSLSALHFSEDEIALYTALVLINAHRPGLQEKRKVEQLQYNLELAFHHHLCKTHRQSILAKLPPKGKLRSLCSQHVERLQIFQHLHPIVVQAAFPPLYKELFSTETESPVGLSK
pEC50: −log10 of the molar value.
OBSERVABLE: pEC50

For the molecule shown here, `Cc1ccc(NC(=O)[C@H]2CN(S(=O)(=O)CC(F)(F)F)C[C@@H]2c2nnc([C@H]3C[C@@H](CC(C)(C)C)C3)n2C2CC2)c(C)c1` , give the reported pEC50. > 5.52

Quick one: Cc1ccc(NC(=O)[C@H]2CC(C)(O)C[C@@H]2c2nnc([C@H]3C[C@@H](CC(C)C)C3)n2C2CC2)c(C)c1 (single isomer, unassigned) [Example F-562] > 5.52

Now give it for `Cc1ccc(NC(=O)[C@H]2CN(C)C[C@@H]2c2nnc([C@H]3C[C@@H](CC(C)(C)C)C3)n2C2CC2)c(C)c1` too. > 5.52

For `Cc1ccc(NC(=O)[C@H]2CN(C(=O)OC(C)(C)C)C[C@@H]2c2nnc([C@H]3C[C@@H](CC(C)(C)C)C3)n2C2CC2)c(C)c1` then? > 5.52

Now consider `Cc1c(F)cccc1NC(=O)C[C@H](CCO)c1nnc([C@H]2C[C@@H](CC(F)(F)F)C2)n1C1CC1` . < 5.52

Continuing:
What measured pEC50 goes with Cc1ccc(NC(=O)CC(CO)c2nnc(CCCC(C)(C)C)n2C2CC2)c(C)c1 (racemic) ? > 5.52

Now this one: `CC(=O)N1C[C@H](C(=O)Nc2ccc(C)cc2C)[C@@H](c2nnc(C3CC4(CCC(F)(F)CC4)C3)n2C2CC2)C1` > 5.52

----------
target: mouse RORγ (Mus musculus, UniProt P51450); construct: mouse, NM_011281.2 and from Ile251 to Lys516; expressed in transfected cells; host or cells: CHO cells (transient co-transfection with pG5-Luc reporter); assay: Luciferase reporter gene assay of inhibitory effect against RORγ transcriptional activity (GAL4-mRORγ plasmid in CHO cells); type: cell-based; details: read-out: LUC EC50 (μM) mRORg
Sequence (P51450 251-516): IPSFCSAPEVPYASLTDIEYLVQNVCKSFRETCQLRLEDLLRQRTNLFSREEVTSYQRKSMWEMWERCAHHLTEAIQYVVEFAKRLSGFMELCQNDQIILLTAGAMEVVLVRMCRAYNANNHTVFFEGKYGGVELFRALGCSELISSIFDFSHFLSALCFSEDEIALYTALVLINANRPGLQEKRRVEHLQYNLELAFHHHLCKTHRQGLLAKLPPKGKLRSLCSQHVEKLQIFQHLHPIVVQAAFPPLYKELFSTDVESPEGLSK
OBSERVABLE: EC50

Here is how some molecules turned out for EC50.
So what's the measured EC50 for this one? CC(=O)N1C[C@H](C(=O)Nc2ccc(C)cc2C)[C@@H](c2nnc([C@H]3C[C@H](c4ccccc4)C3)n2C2CC2)C1 (racemic) [Example F-345] < 3 µM

Now give it for COc1cccc(NC(=O)[C@H]2CN(C(C)=O)C[C@@H]2c2nnc(CCCC(C)(C)C)n2C2CC2)c1C (racemic) [Example F-332] too. < 3 µM

Another molecule to look at: CCCn1c(CCC(=O)Nc2cccc3ccccc23)nnc1C1Cc2ccccc2C1 [Example F-5] > 3 µM

And the next one, COC(=O)N1C[C@H](C(=O)Nc2ccc(C)cc2C)[C@@H](c2nnc(CCCC(C)(C)C)n2C2CC2)C1 (racemic) [Example F-399] ? < 3 µM

Likewise for Cc1cc(C#N)ccc1NC(=O)CCc1nnc(CCC(C)C)n1C1CC1 [Example F-161] ? > 3 µM

Moving on to the next molecule: COc1cc(C)ccc1CNC(=O)CCc1nnc(CCC2CCC(F)(F)CC2)n1C1CC1 [Example F-257] < 3 µM

Continuing:
Param item = CC(=O)N1C[C@H](C(=O)Nc2ccc(C)cc2C)[C@@H](c2nnc(CCC3CCCCC3)n2C2CC2)C1 [Example F-402] ; retrieve measured EC50. < 3 µM
